# TEST_SYSTEM: Voltage-gated potassium channel subunit beta-2 (Rattus norvegicus) (UniProt P62483)
# Sequence (P62483 whole entry, looked up): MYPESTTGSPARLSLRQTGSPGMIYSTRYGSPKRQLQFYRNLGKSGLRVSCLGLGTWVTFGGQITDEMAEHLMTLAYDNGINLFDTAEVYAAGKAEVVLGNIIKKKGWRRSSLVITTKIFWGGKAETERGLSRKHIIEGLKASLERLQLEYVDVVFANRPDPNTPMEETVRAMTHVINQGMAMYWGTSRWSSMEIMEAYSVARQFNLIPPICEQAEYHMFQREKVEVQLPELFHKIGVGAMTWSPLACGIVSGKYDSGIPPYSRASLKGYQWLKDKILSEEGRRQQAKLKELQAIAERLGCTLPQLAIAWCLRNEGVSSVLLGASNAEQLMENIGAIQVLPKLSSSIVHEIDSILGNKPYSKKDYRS
# EXPERIMENT: KvBeta positive modulators, primary screen, biochemical, NADPH fluorescence (AID 623);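 further: fluorescence intensity change per second fitted from 20 to 320 s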
# TEST_PARAMETERS: Recombinant KvBeta, NADPH fluorescence decrease slope, 10 min; at 10 µM; stronger effect = lower value
# reported NADPH fluorescence slope; entries follow

| COMPOUND | NADPH fluorescence slope |
| --- | --- |
| CN(C)CCN(Cc1ccccc1)c1ccccn1 | -8.6e-05 |
| c1ccc(-c2nc(NCC3CCCO3)c3ccccc3n2)nc1 (centres undefined) | -0.000131 |
| O=C1C=C(O)CC(c2cccs2)C1 (centres undefined) | -5.7e-05 |
| O=C1c2ccccc2S(=O)(=O)N1CC(O)COc1ccc(Cl)cc1 (centres undefined) | -8.9e-06 |
| CN/C(=C/[N+](=O)[O-])NCCSCc1ccc(CN(C)C)o1 | 1.7e-05 |
| COc1cccc(-c2nc(N3CC(C)CC(C)C3)c3ccccc3n2)c1O (centres undefined) | -2.4e-05 |
| COc1ccc(-c2cn3ccsc3n2)cc1 | -0.000227 |
| Cc1cc(=O)[nH]c(SCC(=O)c2ccccc2)c1C#N | -0.000133 |
| CC(=O)Nc1nnc(S(N)(=O)=O)s1 | -6.7e-05 |
| CCOC(=O)COn1c(=O)c(-c2ccco2)[n+]([O-])c2ccccc21 | -1.2e-05 |
| c1ccc(Cc2nnc3n2CCCCC3)cc1 | -4.5e-05 |
| O=c1[nH]nc2n1CCCCC2 | -0.000113 |
| CC(=O)[C@@]1(O)CC[C@H]2[C@@H]3CCC4=CC(=O)CC[C@]4(C)[C@H]3[C@@H](O)C[C@@]21C | -5.2e-05 |
| c1ccc(-c2nnc3sc(Cc4cccs4)nn23)cc1 | -0.000133 |
| CC(=O)Nc1ccccc1O | -5.7e-05 |
| CC(O)Cn1cnc2c1c(=O)n(C)c(=O)n2C (centres undefined) | -7.7e-05 |
| CCOC(=O)CC1=C(C(=O)OCC)C(c2cc(OC)c(OC)cc2OC)C(C#N)=C(N)O1 (centres undefined) | 6.8e-06 |
| O=C(O)c1c[nH]c2ccc(S(=O)(=O)N3CCOCC3)cc12 | -6.6e-05 |
| COc1ccc(/C=C/C(=O)Nc2ccccc2C(=O)O)cc1OC | -8.1e-05 |
| O=C(Oc1ccccc1N1C(=O)CCC1=O)c1ccco1 | -6.4e-05 |
| Cn1c(=O)c2c3c(sc2n2c(SCC(N)=O)nnc12)CC(C(C)(C)C)CC3 (centres undefined) | 6.2e-07 |
| Cc1nc(NCCN)c(C#N)c2c1COC(C)(C)C2 | -1.4e-06 |
| CC(=O)OCC(=O)[C@@]12OC3(CCCC3)O[C@@H]1C[C@H]1[C@@H]3CCC4=CC(=O)C=C[C@]4(C)[C@@]3(F)[C@@H](O)C[C@@]12C | -2.6e-05 |
| O=C(c1ccc(=O)oc1)N1CCOCC1 | -0.000126 |

###

# EXPERIMENT: inhibitors of Chlamydomonas gravitaxis, primary screen, whole organism, Chlamydomonas reinhardtii, WT vs cilia-less mutant, absorbance, 96-well (AID 463189);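 further: 0% = wild type cc124 cells in DMSO and 100% = ciliumless bld1 mutant cells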
# TEST_PARAMETERS: OD600 absorbance, 2 days, at 10 µM, stronger effect = higher value
Listed below: inhibition values for each entry.
REPORTED_ENDPOINT: inhibition (%)

| COMPOUND | TEST_RESULT |
| --- | --- |
| COc1ccc(/C(O)=C2/C(=O)C(=O)N(CCCN(C)C)C2c2cccc(Cl)c2)cc1OC (stereo unspecified) | 0.268 |
| CN1CCN(c2nc(C(N)=O)cc(-c3ccccc3)n2)CC1 | 18.8 |
| CCn1nnc(C(=O)O)c1C(=O)O | -1.97 |
| O=C(O)c1cc(=O)c2c(OCC(O)COc3cccc4oc(C(=O)O)cc(=O)c34)cccc2o1 | -9.3 |
| Cc1cn([C@H]2C[C@H](N=[N+]=[N-])[C@@H](CO)O2)c(=O)[nH]c1=O | -6.84 |
| CCN=C1SC(C(=O)Nc2ccc(Cl)c(Cl)c2)CC(=O)N1CC (stereo unspecified) | 0.946 |
| COc1ccc(NC2CC(=O)N(C)C2=O)cc1 (stereo unspecified) | 30.2 |
| COc1ccc2c(c1OC)C(=O)N1c3ccccc3C(=O)N(c3ccc(F)cc3)C21 (stereo unspecified) | 6.22 |
| O=C(NC1CCS(=O)(=O)C1)c1c(NC(=O)C2COc3ccccc3O2)sc2c1CCCC2 (stereo unspecified) | 30.5 |
| CCN(CC)CCn1c(O)c(N=O)c2ccccc21 | 0.498 |
| N/C(CCN1CCCCC1)=N/O | 12.2 |

###

# z-score per record follows
# EXPERIMENT: DUSP6 inhibitors restoring Erk phosphorylation by chemical complementation, primary imaging in DUSP6-transfected HeLa (AID 609)
# TEST_PARAMETERS: HeLa MKP-3 transfected, phospho-Erk imaging KS statistic; measured here: cell density z-score; at 10 µM; cells stimulated with TPA for 15 min
REPORTED_ENDPOINT: z-score

| CHEM_SMILES | REPORTED_ENDPOINT | TEST_RESULT |
| --- | --- | --- |
| C=CCn1cnc2c(c1=O)c1nc3ccccc3nc1n2-c1ccc(C)cc1 | z-score | -0.575 |
| Cc1nnc(SCC2=C(C(=O)O)N3C(=O)[C@@H](NC(=O)Cn4cnnn4)[C@H]3SC2)s1 | z-score | -0.857 |
| Cc1cc(C)nc(N(C#N)S(=O)(=O)c2ccccc2Cl)n1 | z-score | -0.515 |
| CCOC(=O)c1c(C)cccc1OCC(N)=O | z-score | -0.228 |
| C[C@]12CCC(=O)C=C1CC[C@@H]1[C@@H]2[C@@H](O)C[C@@]2(C)[C@H]1CC[C@]2(O)C(=O)CO | z-score | -3.38 |

###

# EXPERIMENT: DUSP6 inhibitors restoring Erk phosphorylation by chemical complementation, primary imaging in DUSP6-transfected HeLa (AID 609)
# TEST_PARAMETERS: HeLa MKP-3 transfected, phospho-Erk imaging KS statistic; measured here: nuclear c-Myc green intensity z-score; at 10 µM; cells stimulated with TPA for 15 min
Note to self: values exactly at -0.9 are YES. So z-score at or above -0.9 is YES, below is NO.

| MOLECULE | CLASSIFICATION |
| --- | --- |
| COc1ccc(/C(O)=C2/C(=O)C(=O)N(CCN3CCOCC3)C2c2ccccn2)cc1OC (stereo unspecified) | NO |
| O=C(c1cccc2ccccc12)N1CCC(N2CCN(c3ccccc3)CC2)CC1 | YES |
| O=C(CNC1=NCCC1)c1ccc2c(c1)OCCO2 | NO |
| COc1ccc(/C(O)=C2/C(=O)C(=O)N(CCN(C)C)C2c2ccccn2)cc1OC (stereo unspecified) | YES |
| CCC1(C)Cc2c(sc3c2c(=O)n(C)c2nnc(SCc4ccc5c(c4)OCO5)n32)CO1 (stereo unspecified) | YES |
| COc1cccc(OC)c1C(=O)N1CCN(S(=O)(=O)c2ccc(C)cc2)CC1 | NO |
| CN1CCC(=C2c3ccccc3CC(=O)c3sccc32)CC1 | YES |
| COC(=O)C(NC(C)=O)(Nc1ccccc1)C(=O)OC | NO |
| N#CC1(P(=O)(c2ccccc2)c2ccccc2)CC1 | YES |
| CCCCc1c(C)c2ccc(OCC(C)=O)cc2oc1=O | YES |
| COC(=O)CC1=C(C(=O)OC)C(c2ccc3c(c2Cl)OCO3)C(C#N)=C(N)O1 (stereo unspecified) | NO |

###

# EXPERIMENT: inhibitors of TNFa-induced NFkB p65 translocation, primary screen, imaging, HUVEC, MLSMR starter and 10KST1 sets (AID 438);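 further: compound added about 3h40 before a 20 min TNFalpha stimulation; signal is the nuclear over cytoplasmic p65 intensity ratio per well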
# TEST_PARAMETERS: HUVEC TNFa-induced p65 nuclear translocation; at 2 µM, stronger effect = higher value, 0% TNFa-plus-vehicle, 100% no-TNFa wells

| COMPOUND | inhibition [%] |
| --- | --- |
| COCCN(C(=O)Nc1ccccc1)c1ccccc1C | -5.7 |
| O=C(NCCN1CCCCC1)c1ccc(=O)oc1 | -3 |
| Cc1[nH]c(=O)[nH]c(=O)c1S(=O)(=O)N1CCCC1 | -7.5 |
| N#C/C(C(=O)N1CCOCC1)=C1/SC(Cc2ccccc2)C(=O)N1c1ccccc1 (stereo not given) | -7.6 |
| CSc1nnc(N(CCC#N)CCC#N)s1 | -2.1 |
| CC(C)CNC(=O)c1c(N)n(/N=C/c2ccccn2)c2nc3ccccc3nc12 | -2.3 |
| COc1ccc(C2N3CC4(C)CN2CC(C)(C3)C4O)cc1OC (stereo not given) | -20.6 |
| CC(=O)O[C@H]1C(=O)[C@]2(C)[C@H]([C@H](OC(=O)c3ccccc3)[C@]3(O)C[C@H](OC(=O)[C@H](O)[C@@H](NC(=O)c4ccccc4)c4ccccc4)C(C)=C1C3(C)C)[C@]1(OC(C)=O)CO[C@@H]1C[C@@H]2O | -11.8 |
| CCOC(=O)c1c(C)n(C)c2ccc(OC)c(NC(=O)CN3CCSCC3)c12 | -7.1 |
| COc1ccc(Cn2c(CCCO)nc3ccccc32)cc1OC | -7.7 |
